subject.of.test: GalNAc(b1-3)GlcNAc
assay.method.text: glycan array binding signal (z-score within array); higher = stronger binding
assay.setup: glycan notation: IUPAC condensed, linker removed
About 410 targets per protein were measured; listed, in parts, are those with the strongest signals and a random draw of the rest.
recorded.metric: glycan array binding signal (z-score)
Numbers only.

CBP21 (Serratia marcescens), O83009 (protein) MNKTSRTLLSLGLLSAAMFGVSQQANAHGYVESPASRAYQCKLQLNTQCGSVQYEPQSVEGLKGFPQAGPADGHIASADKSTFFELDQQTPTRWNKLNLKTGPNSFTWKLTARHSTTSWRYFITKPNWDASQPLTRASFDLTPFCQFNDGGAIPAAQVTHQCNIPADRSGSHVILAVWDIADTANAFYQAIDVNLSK    -0.162
Epa3 (Candida glabrata), Q6VBI8_CANGB (protein) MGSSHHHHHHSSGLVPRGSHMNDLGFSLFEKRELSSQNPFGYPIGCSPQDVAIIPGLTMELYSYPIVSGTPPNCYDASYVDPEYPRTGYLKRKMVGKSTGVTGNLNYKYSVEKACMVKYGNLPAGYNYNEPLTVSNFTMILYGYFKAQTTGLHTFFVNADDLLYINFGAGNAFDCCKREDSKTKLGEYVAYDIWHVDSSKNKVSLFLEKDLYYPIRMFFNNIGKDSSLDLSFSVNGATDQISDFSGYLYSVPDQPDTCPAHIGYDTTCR    -0.122
Epa9 (Candida glabrata), CAGL0A01386g (protein) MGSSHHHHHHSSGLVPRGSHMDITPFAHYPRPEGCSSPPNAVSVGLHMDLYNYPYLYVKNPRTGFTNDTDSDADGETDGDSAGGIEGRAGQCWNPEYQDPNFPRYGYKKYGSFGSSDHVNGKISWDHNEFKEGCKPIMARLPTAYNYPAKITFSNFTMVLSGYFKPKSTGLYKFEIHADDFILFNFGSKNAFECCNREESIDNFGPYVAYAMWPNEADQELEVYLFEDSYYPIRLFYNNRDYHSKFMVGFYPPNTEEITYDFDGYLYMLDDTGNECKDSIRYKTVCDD    -0.486

Consider now this further binder.
IN: Give the measured glycan array binding signal (z-score) of AidA (Burkholderia cenocepacia) (protein) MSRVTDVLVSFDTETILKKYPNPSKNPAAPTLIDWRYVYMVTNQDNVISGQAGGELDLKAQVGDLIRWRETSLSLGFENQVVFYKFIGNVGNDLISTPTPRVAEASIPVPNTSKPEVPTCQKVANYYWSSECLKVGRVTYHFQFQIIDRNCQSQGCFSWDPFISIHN .
OUT: -0.115
